test system: Mia PaCa2; assay: Cytotoxicity test (ViaLight Plus cell proliferation) on Mia PaCa2; assay type: cell-based, human; details: Homo sapiens, MIA PaCa-2; 72 hours' incubation, cell viability; read-out: EC50 Mia PaCa2
Consider the following compounds; for each one, report its pIC50.
Give bare numbers, as −log10 of the molar value.

Cc1cc(Oc2ccccc2)ccc1N(C(=O)CCl)C(C(=O)N1CCN[C@@H](C)C1)c1cccs1 (single isomer, unassigned)	7.74

Hello, I would appreciate it if you could give pIC50 for each entry below.
1. Cc1cc(Oc2ccccc2)ccc1N(C(=O)CCl)C(C(=O)N1CCN[C@@H](C(C)C)C1)c1ccc(F)cc1 (single isomer, unassigned)
2. CC(C)[C@H]1CN(C(=O)C(c2ccc(F)cc2)N(C(=O)CCl)c2ccc(Oc3ccccc3)cc2)CCN1 (single isomer, unassigned)

1. 7.89
2. 8.70

---

tested on: Mia PaCa2; experiment: Cytotoxicity test (ViaLight Plus cell proliferation) on Mia PaCa2; type: cell-based, human; conditions: 72 hours' incubation, cell viability
PROPERTY LABEL: EC50

Cc1cc(Oc2ccccc2)ccc1N(C(=O)CCl)C(C(=O)N1CCN[C@@H](C(C)C)C1)c1cccs1 (single isomer, unassigned; dia2)	0.01 µM

Value of EC50 reported for the molecule CC(C)[C@H]1CN(C(=O)C(c2cccs2)N(C(=O)CCl)c2cccc(C(F)(F)F)c2)CCN1 (single isomer, unassigned; dia2) is 2.2 µM

---

assay: Determination of aqueous solubility; assay type: physicochemical; settings: aqueous medium, aqueous buffer, thermodynamic from solid, pH 7.4, agitation 24 h, 20° C., HPLC
PROPERTY LABEL: solubility at 24 h (µg/mL)
Give bare numbers, in µg/mL.

Provide solubility at 24 h values for the following items, in order.
1. C[C@H]1CNCCN1C(=O)C(c1cccs1)N(C(=O)CCl)c1ccc(Oc2ccccc2)cc1.Cl (some centres unmarked) [reference compound]
2. Cl.O=C(C(c1cccs1)N(C(=O)CCl)c1ccc(Oc2ccccc2)cc1)N1CCNCC1 (centres unmarked) [reference compound]
3. CC(C)[C@H]1CN(C(=O)C(c2cccs2)N(C(=O)CCl)c2ccc(Oc3ccccc3)cc2)CCN1 (some centres unmarked)
4. C[C@H]1CN(C(=O)C(c2cccs2)N(C(=O)CCl)c2ccc(Oc3ccccc3)cc2)CCN1.Cl (some centres unmarked)
5. C[C@@H]1CN(C(=O)C(c2cccs2)N(C(=O)CCl)c2ccc(Oc3ccccc3)cc2)CCN1.Cl (some centres unmarked)

1. 105
2. 68
3. 50
4. 203
5. 152

---

Field: EC50. Provide a value for each of the molecules that follow.
test system: HL-60; experiment: Cytotoxicity test (ViaLight Plus cell proliferation) on HL-60; format: cell-based, human; settings: 72 hours' incubation, cell viability vs 0.5% DMSO control
Answers are plain numbers, in nM.

Known results for molecules:
Cc1cc(Oc2ccccc2)ccc1N(C(=O)CCl)C(C(=O)N1CCN[C@@H](C(C)C)C1)c1cccs1 (single isomer, unassigned; dia2) [I-46 dia2]	449
CC(C)[C@@H]1CN(C(=O)C(c2ccc(F)cc2)N(C(=O)CCl)c2ccc(Oc3ccccc3)cc2)CCN1 (single isomer, unassigned) [I-4 dia2]	1320
C[C@@H]1CN(C(=O)C(c2ccc(F)cc2)N(C(=O)CCl)c2ccc(Oc3ccccc3)cc2)CCN1 (single isomer, unassigned; dia1) [I-22 dia1]	2000

Please turn your attention to the following entry.
Bench note, HL-60: C[C@H]1CN(C(=O)C(c2ccc(F)cc2)N(C(=O)CCl)c2ccc(Oc3ccccc3)cc2)CCN1 (single isomer, unassigned; dia2) [I-21 dia2] , EC50 reads 630
